Where these numbers come from: patent US20190106487A1

# Assay target: T1, human IL-1RAcP on 293T/17-FR cells (human, UniProt Q9NPH3 21-570)
# T1 sequence (looked up): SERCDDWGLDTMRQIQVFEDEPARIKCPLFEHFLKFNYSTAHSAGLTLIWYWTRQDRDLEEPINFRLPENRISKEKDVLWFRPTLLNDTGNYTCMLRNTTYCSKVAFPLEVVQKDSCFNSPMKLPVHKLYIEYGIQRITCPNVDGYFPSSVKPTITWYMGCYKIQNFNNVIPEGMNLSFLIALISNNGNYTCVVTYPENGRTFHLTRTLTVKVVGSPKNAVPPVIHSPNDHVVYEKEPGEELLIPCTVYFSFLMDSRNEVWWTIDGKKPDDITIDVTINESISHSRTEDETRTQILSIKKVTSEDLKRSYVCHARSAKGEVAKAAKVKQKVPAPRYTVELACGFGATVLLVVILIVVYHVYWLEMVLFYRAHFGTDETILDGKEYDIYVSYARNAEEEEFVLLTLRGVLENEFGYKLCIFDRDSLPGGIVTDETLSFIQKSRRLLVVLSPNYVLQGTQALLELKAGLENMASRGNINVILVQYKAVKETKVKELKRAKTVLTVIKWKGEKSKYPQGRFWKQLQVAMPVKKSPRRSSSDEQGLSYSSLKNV
# Assay details: cell-based or functional assay
Entries and their functional reporter gene assay (% inhibition), 1 µg/mL mAb
All answers are understood in %, so give the number only.

{"Binder": "P013.S.01.B.F03 (antibody, V domains shown, rabbit monoclonal antibody; also called P013.A.00025.F02) VH: LEQSGGGAEGGLVKPGGSLELCCKASGFSLGSSYWICWVRQAPGKGLEWIGCIYAGSSGITYYASWVSGRFTLSRDIDQSTGCLQLNSLTAADTAMYYCARDIYASTSGYDLWGQGTLVTVSS VL: ALVMTQTPSPVSAAVGGTVTINCQASEDIYSNLAWFQQKPGQPPKLLIYQASTLASGVPSRFSGSGSGTEFTLTISGLQSDDAAAYYCLGVCTYIGADNTLYNTFGGGTEVVVK", "Measured": 87}
{"Binder": "P013.S.01.B.D04 (antibody, V domains shown, rabbit monoclonal antibody; also called P013.A.00088.B09) VH: QEQLKESGGRLVTPGGSLTLTCTVSGFSLSIYAMGWFRQAPGKGLEWIGDIYPGSDSTWYASWAKGRFTISKTSTTVDLKITSPTTEDTATYFCAREIDAGYVGYGFDLWGQGTLVTVSS VL: AQALTQTPSSVSAAVGGTVTINCQSSQSVYSDYLAWYQQKPGQSPKLLIYKASKLASGVPSRFKGSGSGTEFTLTISGVQSDDAATYYCQATYYSVGWYRAFGGGTEVVVK", "Measured": 87}

Notebook: P013.S.02.B.B02 (antibody, V domains shown, rabbit monoclonal antibody; also called P013.A.00045.H10) VH: LAQSGGGAEGGLVKPGGSLELCCEASGFSLSSSYWICWVRQAPGKGLEWIGCIYTGSSGNTYYASWVNGRFTLSRDIDRSTGCLQLNSLTAADTAMYYCARDANSHYMMNLWGQGTLVTVSS VL: ALVMTQTPSPVSAAVGGTVTINCQASEDIYSNLAWFQQKPGQPPKLLIYDASTLASGVPSRFSGSGSGTEFTLTISGLQSDDAATYYCLGVYTYISADGTLVYNAFGGGTEVVVR , functional reporter gene assay (% inhibition), 1 µg/mL mAb read as 33
